Consider the following compounds; for each one, report its thermal shift delta Tm.
- Test system: LOC_OS07G06570-cb004;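 further: purified Escherichia coli-expressed rice kinase domain construct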
- test_description: thermal shift delta Tm vs DMSO control; higher = stronger stabilization (binding)
- condition_info: 12.5 µM; protein concentration 2 µM
Give bare numbers, in °C.

Recorded thermal shift delta Tm, per entry:
CN(C)Cc1cccc(N=C(c2ccccc2)c2c(O)[nH]c3cc(C(=O)N(C)C)ccc23)c1: 0.59
COc1cc(OC)cc(N(CCNC(C)C)c2ccc3ncc(-c4cnn(C)c4)nc3c2)c1: 1.94
Cc1c(C(=O)Nc2ccc(Oc3ccnc4[nH]cc(-c5ccccc5)c34)c(F)c2)c(=O)n(-c2ccc(F)cc2)n1C: 1.05
CCN1CCN(Cc2ccc(Nc3ncc(F)c(-c4cc(F)c5nc(C)n(C(C)C)c5c4)n3)nc2)CC1: 1.14

Batch: thermal shift delta Tm for all items listed.
1. CCCCNc1ncc(-c2ccc(CN3CCOCC3)cn2)c(NC2CCC(O)CC2)n1 (configuration not stated)
2. O=c1c(O)c(-c2ccc(O)c(O)c2)oc2cc(O)cc(O)c12 [Quercetin]
3. CCn1cc(-c2ccnc3[nH]c(-c4cccc(CN(C)C)c4)cc23)c(-c2ccc(NC(=O)N(C)C)cc2)n1
4. CCN1/C(=C/C(C)=O)Sc2ccc(OC)cc21
5. Cc1c(NC(=O)OC[C@@H]2COCCN2)cn2ncnc(Nc3ccc4c(cnn4Cc4cccc(F)c4)c3)c12

Completion:
1. 0.37
2. -0.26
3. 1.35
4. 0.57
5. 0.91

Batch: thermal shift delta Tm for all items listed.
1. CN(C)C/C=C/C(=O)Nc1cc2c(Nc3ccc(F)c(Cl)c3)ncnc2cc1O[C@H]1CCOC1 [Afatinib (BIBW2992) Dimaleate]
2. Cn1c(=O)c(Oc2ccc(F)cc2F)cc2cnc(NC(CCO)CCO)nc21

Completion:
1: 1.27; 2: 1.46

Batch: thermal shift delta Tm for all items listed.
1. CNC(=O)c1nn(C)c2c1C(C)(C)Cc1cnc(Nc3ccc(N4CCN(C)CC4)cc3)nc1-2
2. CCn1c(C(=O)N(C2CC2)C2CC2)cc2c3c(ncn3C)c(Nc3cc(C)n(C)n3)nc21
3. CS(=O)(=O)CCNCc1ccc(-c2ccc3ncnc(Nc4ccc(OCc5cccc(F)c5)c(Cl)c4)c3c2)o1 [Lapatinib]

Completion:
0.26
1.49
2.3

Batch: thermal shift delta Tm for all items listed.
1. CCN1CCN(Cc2ccc(C(=O)Nc3ccc(C)c(Oc4ccc5c(c4)CC(=O)N5)c3)cc2C(F)(F)F)CC1
2. CC(C)(O)CC(=O)NCCn1ccc2ncnc(Nc3ccc(Oc4cccc(C(F)(F)F)c4)c(Cl)c3)c21
3. COC(=O)Nc1ccc(-c2nc(N3CCOCC3)c3cnn(C4CCN(C(=O)OC)CC4)c3n2)cc1
4. Oc1cccc(-c2nc(N3CCOCC3)c3oc4ncccc4c3n2)c1
5. C=CC(=O)Nc1cc(Nc2nccc(-c3cn(C)c4ccccc34)n2)c(OC)cc1N(C)CCN(C)C [Osimertinib (AZD9291)]
6. Cc1cc(NC(=O)c2cccc(NC(=O)/C=C/CN(C)C)c2)ccc1Nc1nccc(-c2cccnc2)n1
7. CN1CC(O)C2=C/C(=N/NC(N)=O)C(=O)C=C21 (configuration not stated) [Carbazochrome]

Completion:
[0.16, 0.78, 0.99, 1.15, 1.03, 1.56, 0.68]
